test system: MV4-11 cells, human B-myelomonocytic leukemia; test: Leukemia cell line activity assay (Cell Counting Kit-8, 5 days), MV4-11; settings: Homo sapiens, MV4-11, 120 h, read-out: MV4-11 CC50, MV4-11 cells, 5 days incubation
Value kind: CC50 (nM)
Give the value in nM but do not write nM after it.

Prompt: Consider the compound CCCC(=O)OCC1(CO[P@@](=O)(N[C@@H](C)C(=O)O[C@@H](C)CCC)Oc2ccccc2)C/C1=C/n1cnc2c(=O)[nH]c(N)nc21 (stereo partly drawn) and give its recorded CC50.
Completion: 430

Prompt: Consider the compound CCCCCCCCCCCCCCCCCC(=O)OCC1(CO[P@@](=O)(N[C@@H](C)C(=O)O[C@@H](C)CCC)Oc2ccccc2)C/C1=C/n1cnc2c(=O)[nH]c(N)nc21 (stereo partly drawn) and give its recorded CC50.
Completion: 2100

Prompt: Consider the compound CCC(CC)COC(=O)[C@H](CC(C)C)N[P@](=O)(OCC1(COC(=O)C(C)C)C/C1=C/n1cnc2c(=O)[nH]c(N)nc21)Oc1ccccc1 (single isomer, unassigned) and give its recorded CC50.
Completion: 510

* * *

Give measured CC50 for each item. Keep answers brief.
system: EOL-1 (human); assay: Leukemia cell line activity assay (Cell Counting Kit-8, 5 days), EOL-1; details: Homo sapiens, EOL1, 120 h, read-out: EOL.1 CC50
Express the reported value numerically, then name its unit.

Prompt: Consider the compound CCCC(=O)OC[C@]1(CO[P@@](=O)(N[C@@H](C)C(=O)O[C@@H](C)CCC)Oc2ccc(Br)cc2)C/C1=C/n1cnc2c(=O)[nH]c(N)nc21 [Example 12-1] and give its recorded CC50.
Completion: 170 nM

Prompt: Consider the compound CCCC(CCC)COC(=O)[C@H](C)N[P@](=O)(OCC1(COC(=O)C(C)(C)C)C/C1=C/n1cnc2c(=O)[nH]c(N)nc21)Oc1ccccc1 (stereo partly shown) [Example 38] and give its recorded CC50.
Completion: 210 nM

Prompt: Consider the compound Nc1nc2c(ncn2/C=C2/CC2(CO)CO)c(=O)[nH]1 [Cyclopropavir, reference compound] and give its recorded CC50.
Completion: 11000 nM

Prompt: Consider the compound CCCC(CCC)COC(=O)[C@H](C)N[P@](=O)(OC[C@@]1(COC(=O)[C@@H](N)C(C)C)C/C1=C/n1cnc2c(=O)[nH]c(N)nc21)Oc1ccccc1 [Example 1f-1] and give its recorded CC50.
Completion: 120 nM

* * *

Give measured CC50 for each item. Keep answers brief.
test system: MV4-11 cells, human B-myelomonocytic leukemia; assay: Leukemia cell line activity assay (Cell Counting Kit-8, 5 days), MV4-11; details: read-out: MV4-11 CC50; MV4-11 cells, 5 days incubation
Give the value in µM but do not write µM after it.

Prompt: Consider the compound CCCC(=O)OCC1(CO[P@@](=O)(N[C@@H](C)C(=O)OCC(CCC)CCC)Oc2ccccc2)C/C1=C/n1ccc(N)nc1=O (single isomer, unassigned) [Example 45-1] and give its recorded CC50.
Completion: 0.18

Prompt: Consider the compound CCCC(=O)OCC1(CO[P@@](=O)(N[C@@H](C)C(=O)OCC(CCC)CCC)Oc2ccccc2)C/C1=C/n1ccc(N)nc1=O (single isomer, unassigned) [Example 45-2] and give its recorded CC50.
Completion: 2.2

Prompt: Consider the compound CCC(CC)COC(=O)[C@H](Cc1ccccc1)N[P@](=O)(OCC1(COC(=O)C(C)C)C/C1=C/n1ccc(N)nc1=O)Oc1ccccc1 (some centres unmarked) and give its recorded CC50.
Completion: 0.086

Prompt: Consider the compound CCCC(=O)OCC1(CO[P@@](=O)(N[C@@H](C)C(=O)OCC(CCC)CCC)Oc2ccccc2)C/C1=C/n1ccc(N)nc1=O (single isomer, unassigned) [Example 32-1] and give its recorded CC50.
Completion: 0.18

Prompt: Consider the compound CCC(CC)COC(=O)[C@H](CC(C)C)N[P@](=O)(OCC1(COC(=O)C(C)C)C/C1=C/n1ccc(N)nc1=O)Oc1ccccc1 (some centres unmarked) and give its recorded CC50.
Completion: 0.44

* * *

tested on: THP-1 (human acute monocytic leukemia); experiment: Leukemia cell line activity assay (Cell Counting Kit-8, 5 days), THP-1; settings: Homo sapiens, THP-1, 120 h, read-out: THP-1 CC50, THP-1 cells, 5 days incubation
Value kind: CC50 (nM)
Give the value in nM but do not write nM after it.

Prompt: Consider the compound CCC(CC)COC(=O)[C@H](Cc1ccccc1)N[P@](=O)(OCC1(COC(=O)C(C)C)C/C1=C/n1cnc2c(=O)[nH]c(N)nc21)Oc1ccccc1 (single isomer, unassigned) and give its recorded CC50.
Completion: 900

Prompt: Consider the compound CCC[C@H](C)OC(=O)[C@H](C)N[P@](=O)(OCC1(COC(=O)C(C)C)C/C1=C/n1ccc(N)nc1=O)Oc1ccccc1 (single isomer, unassigned) and give its recorded CC50.
Completion: 880

Prompt: Consider the compound COC(=O)[C@H](CC(C)C)N[P@](=O)(OCC1(COC(=O)C(C)C)C/C1=C/n1cnc2c(=O)[nH]c(N)nc21)Oc1ccccc1 (single isomer, unassigned) and give its recorded CC50.
Completion: 1800

Prompt: Consider the compound CCCC(CCC)COC(=O)[C@H](C)N[P@](=O)(OCC1(COC(=O)C(C)(C)C)C/C1=C/n1cnc2c(=O)[nH]c(N)nc21)Oc1ccccc1 (some centres unmarked) and give its recorded CC50.
Completion: 190

Prompt: Consider the compound `CCC[C@H](C)OC(=O)[C@H](C)N[P@](=O)(OC[C@@]1(COC(=O)[C@@H](N)C(C)C)C/C1=C/n1cnc2c(=O)[nH]c(N)nc21)Oc1ccccc1` and give its recorded CC50.
Completion: 1000

Prompt: Consider the compound CCCC(=O)OCC1(CO[P@@](=O)(N[C@@H](C)C(=O)O[C@@H](C)CCC)Oc2ccccc2)C/C1=C/n1cnc2c(=O)[nH]c(N)nc21 (some centres unmarked) and give its recorded CC50.
Completion: 460

Prompt: Consider the compound `CCCC(CCC)COC(=O)[C@H](C)N[P@](=O)(OC[C@@]1(COC(=O)[C@@H](N)C(C)C)C/C1=C/n1cnc2c(=O)[nH]c(N)nc21)Oc1ccccc1` and give its recorded CC50.
Completion: 670

Prompt: Consider the compound CCCC(=O)OCC1(CO[P@@](=O)(N[C@@H](C)C(=O)O[C@@H](C)CCC)Oc2ccccc2)C/C1=C/n1ccc(N)nc1=O (single isomer, unassigned) and give its recorded CC50.
Completion: 710

Prompt: Consider the compound CCC(CC)COC(=O)[C@H](CC(C)C)N[P@](=O)(OCC1(COC(=O)C(C)C)C/C1=C/n1cnc2c(=O)[nH]c(N)nc21)Oc1ccccc1 (single isomer, unassigned) and give its recorded CC50.
Completion: 390

Prompt: Consider the compound `CCCC(=O)OC[C@]1(CO[P@@](=O)(N[C@@H](C)C(=O)OCC(CCC)CCC)Oc2ccccc2)C/C1=C/n1cnc2c(=O)[nH]c(N)nc21` and give its recorded CC50.
Completion: 190

Prompt: Consider the compound `CCCC(=O)OC[C@]1(CO[P@@](=O)(N[C@@H](C)C(=O)O[C@@H](C)CCC)Oc2ccc(Br)cc2)C/C1=C/n1cnc2c(=O)[nH]c(N)nc21` and give its recorded CC50.
Completion: 290

* * *

Give measured CC50 for each item. Keep answers brief.
system: MV4-11 cells, human B-myelomonocytic leukemia; assay: Leukemia cell line activity assay (Cell Counting Kit-8, 5 days), MV4-11; conditions: Homo sapiens, MV4-11, 120 h, read-out: MV4-11 CC50, MV4-11 cells, 5 days incubation
Give the value in nM but do not write nM after it.

Prompt: Consider the molecule CCCC(CCC)COC(=O)[C@H](C)N[P@](=O)(OCC1(COC(=O)C(C)C)C/C1=C/n1ccc(N)nc1=O)Oc1ccccc1 (single isomer, unassigned) and give its recorded CC50.
Completion: 190

Prompt: Consider the molecule CCC(CC)COC(=O)[C@H](Cc1ccccc1)N[P@](=O)(OCC1(COC(=O)[C@@H](N)C(C)C)C/C1=C/n1cnc2c(=O)[nH]c(N)nc21)Oc1ccccc1 (stereo partly drawn) and give its recorded CC50.
Completion: 850

Prompt: Consider the molecule `CCCC(CCC)COC(=O)[C@H](C)N[P@](=O)(OC[C@@]1(COC(=O)[C@@H](N)C(C)C)C/C1=C/n1cnc2c(=O)[nH]c(N)nc21)Oc1ccccc1` and give its recorded CC50.
Completion: 460

Prompt: Consider the molecule `CCCC(CCC)COC(=O)[C@H](C)N[P@](=O)(OC[C@@]1(COC(C)=O)C/C1=C/n1cnc2c(=O)[nH]c(N)nc21)Oc1ccccc1` and give its recorded CC50.
Completion: 1100

Prompt: Consider the molecule CCCC(CCC)COC(=O)[C@H](C)N[P@](=O)(OCC1(COC(=O)C(C)C)C/C1=C/n1cc(F)c(N)nc1=O)Oc1ccccc1 (single isomer, unassigned) and give its recorded CC50.
Completion: 2600

Prompt: Consider the molecule `CCC[C@H](C)OC(=O)[C@H](C)N[P@](=O)(OC[C@@]1(COC(=O)C(C)C)C/C1=C/n1cnc2c(=O)[nH]c(N)nc21)Oc1ccccc1` and give its recorded CC50.
Completion: 430

Prompt: Consider the molecule CCC(CC)COC(=O)C[C@H](N[P@](=O)(OCC1(COC(=O)C(C)C)C/C1=C/n1cnc2c(=O)[nH]c(N)nc21)Oc1ccccc1)C(=O)OCC(CC)CC (single isomer, unassigned) and give its recorded CC50.
Completion: 180

Prompt: Consider the molecule CCCC(=O)OCC1(CO[P@@](=O)(N[C@@H](C)C(=O)OCC(CCC)CCC)Oc2ccccc2)C/C1=C/n1cc(F)c(N)nc1=O (stereo partly drawn) and give its recorded CC50.
Completion: 3100

Prompt: Consider the molecule CCCC(=O)OCC1(CO[P@@](=O)(N[C@@H](C)C(=O)O[C@@H](C)CCC)Oc2ccccc2)C/C1=C/n1ccc(N)nc1=O (single isomer, unassigned) and give its recorded CC50.
Completion: 1200

Reference for the values: patent US12221459B2
